Entries annotated with measured IC50
- ASSAY_INFO: in vitro cytotoxic activity of antibiotics against dog synoviocytes
- Assay type: cell-based
- CONDITION_PARAMETERS: dog
Report the value in mg/L with no unit label.

These solved cases illustrate the format of a correct answer.
CC(C)(O/N=C(\C(=O)N[C@@H]1C(=O)N2C(C(=O)[O-])=C(C[n+]3ccccc3)CS[C@H]12)c1csc(N)n1)C(=O)O [Ceftazidime]; 1620
NCC[C@H](O)C(=O)N[C@@H]1C[C@H](N)[C@@H](O[C@H]2O[C@H](CN)[C@@H](O)[C@H](O)[C@H]2O)[C@H](O)[C@H]1O[C@H]1O[C@H](CO)[C@@H](O)[C@H](N)[C@H]1O [Amikacin]; 2260
CCN1CCN(c2cc3c(cc2F)c(=O)c(C(=O)O)cn3C2CC2)CC1 [Enrofloxacin]; 1250

## Input Recorded IC50 of Cc1nnc(SCC2=C(C(=O)O)N3C(=O)[C@@H](NC(=O)Cn4cnnn4)[C@H]3SC2)s1 [Cefazolin] , please.
## Output 1480

====

- System: Chondrocytes
- ASSAY_INFO: in vitro cytotoxic activity of antibiotics against horse chondrocytes
- Format: cell-based
- CONDITION_PARAMETERS: Equus caballus, Chondrocyte; equine chondrocytes; read-out: Concentration (equine IC50)
# note: exactly 4000 µg/mL is not below, so it is FALSE; use TRUE for IC50 strictly under it

C[C@H]1c2cccc(O)c2C(=O)C2=C(O)[C@]3(O)C(=O)C(C(N)=O)=C(O)[C@@H](N(C)C)[C@@H]3[C@@H](O)[C@@H]21; TRUE
C[C@@H](O)[C@H]1C(=O)N2C(C(=O)O)=C(SCCN=CN)C[C@H]12; FALSE
NC[C@H]1O[C@H](O[C@H]2[C@H](O)[C@@H](O[C@H]3O[C@H](CO)[C@@H](O)[C@H](N)[C@H]3O)[C@H](N)C[C@@H]2N)[C@H](N)C[C@@H]1O; FALSE

## Input Does the reported IC50 of the following molecule sit strictly below 4000 µg/mL? NCC[C@H](O)C(=O)N[C@@H]1C[C@H](N)[C@@H](O[C@H]2O[C@H](CN)[C@@H](O)[C@H](O)[C@H]2O)[C@H](O)[C@H]1O[C@H]1O[C@H](CO)[C@@H](O)[C@H](N)[C@H]1O
## Output TRUE

## Input How about CC(C)(O/N=C(\C(=O)N[C@@H]1C(=O)N2C(C(=O)[O-])=C(C[n+]3ccccc3)CS[C@H]12)c1csc(N)n1)C(=O)O ?
## Output TRUE

## Input Entry to check: CC1(C)S[C@@H]2[C@H](NC(=O)[C@H](N)c3ccc(O)cc3)C(=O)N2[C@H]1C(=O)O
## Output FALSE

## Input Would you kindly repeat that for CS(=O)(=O)c1ccc([C@@H](O)[C@@H](CF)NC(=O)C(Cl)Cl)cc1 ?
## Output TRUE

## Input Please answer likewise for CCN1CCN(c2cc3c(cc2F)c(=O)c(C(=O)O)cn3C2CC2)CC1
## Output FALSE

## Input Cool, now CO/N=C(\C(=O)N[C@@H]1C(=O)N2C(C(=O)O)=C(CSC(=O)c3ccco3)CS[C@H]12)c1csc(N)n1 [Ceftiofur Sodium]
## Output FALSE

====

- ASSAY_INFO: in vitro cytotoxic activity of antibiotics against dog synoviocytes
- Type: cell-based
- CONDITION_PARAMETERS: dog synoviocytes; read-out: IC50 (cytotoxicity)
QUANTITY_KIND: IC50

## Input Consider the compound shown here: CN[C@H](CC(C)C)C(=O)N[C@H]1C(=O)N[C@@H](CC(N)=O)C(=O)N[C@H]2C(=O)N[C@H]3C(=O)N[C@H](C(=O)N[C@H](C(=O)O)c4cc(O)cc(O)c4-c4cc3ccc4O)[C@H](O)c3ccc(c(Cl)c3)Oc3cc2cc(c3O[C@@H]2O[C@H](CO)[C@@H](O)[C@H](O)[C@H]2O[C@H]2C[C@](C)(N)[C@H](O)[C@H](C)O2)Oc2ccc(cc2Cl)[C@H]1O What is its recorded IC50?
## Output 13.8 mg/mL
